The origin of these recorded values is patent US8232273B2.

Molecular target: Bcl-xL (GST-Bcl-xL) (Homo sapiens)
Experiment: TR-FRET binding assay, competition with F-Bak for the Bcl-xL binding site
Conditions: values listed in the order of Table 1, read-out: TR-FRET assay results (Ki), Bcl-xL
Description: The measurement of competition of compounds of the invention with F-Bak for a Bcl-2 family protein (Bcl-xL) binding site using a Time Resolved Fluorescence Resonance Energy Transfer (TR-FRET) binding assay: […] The samples are then mixed on a shaker for 1 minute then incubated for an additional 2 hours at room temperature. […] Fluorescence was measured on the Envision (Perkin Elmer) using a 340/35 nm excitation filter and 520/525 (F-Bak) and 495/510 nm (Tb-labeled anti-his antibody) emission filters. […]
quantity name: log10 Ki (log10 of the value in nM)

# compound, reported measurement
data = [
    ("CC(C)n1cnc2c(-c3ccc(OCCCc4sc(N5CCc6cccc(C(=O)Nc7nc8ccccc8s7)c6C5)nc4C(=O)O)cc3)ncnc21 [Example 52]", -1.30),
    ("O=C(Nc1nc2ccccc2s1)c1cccc2c1CN(c1nc(C(=O)O)c(CCCOc3ccc(C4(c5ccccc5)CCCC4)cc3)s1)CC2 [Example 24]", 0.85),
    ("Cc1cc(N2CCN(c3nc4ccccc4s3)CC2)ccc1OCCCc1sc(N2CCc3cccc(C(=O)Nc4nc5ccccc5s4)c3C2)nc1C(=O)O [Example 29]", 1.36),
    ("O=C(Nc1nc2ccccc2s1)c1cccc2c1CN(c1nc(C(=O)O)c(C#CCO)s1)CC2 [Example 14]", 0.78),
    ("O=C(Nc1nc2ccccc2s1)c1cccc2c1CN(c1ccc(CCCCOc3ccccc3)c(C(=O)O)n1)CC2 [Compound 131]", 1.28),
    ("Nc1ccc(OCCCc2sc(N3CCc4cccc(C(=O)Nc5nc6ccccc6s5)c4C3)nc2C(=O)O)cc1 [Example 6]", -0.70),
    ("O=C(Nc1nc2ccccc2s1)c1cccc2c1CN(c1nc(C(=O)O)c(CCCOc3ccc(OCCN4CCOCC4)cc3)s1)CC2 [Example 88]", -1.30),
]

---

pIC50: −log10 of the molar value.
Data export: pIC50 values recorded with Bcl-xL (GST-Bcl-xL) (Homo sapiens, UniProt Q07817).
Sequence (Q07817 whole entry, species assumed): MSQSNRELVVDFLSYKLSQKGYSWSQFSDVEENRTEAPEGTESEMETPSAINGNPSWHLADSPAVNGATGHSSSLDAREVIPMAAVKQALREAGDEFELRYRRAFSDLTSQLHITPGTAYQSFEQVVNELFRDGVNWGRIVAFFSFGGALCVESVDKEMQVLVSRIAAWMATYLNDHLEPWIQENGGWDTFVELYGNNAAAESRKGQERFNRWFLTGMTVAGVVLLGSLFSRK

# compound, pIC50
measured = [
    ("O=C(Nc1nc2ccccc2s1)c1cccc2c1CN(c1nc(C(=O)O)c(CCCOc3ccc4nc(N5CCN(c6ccccn6)CC5)sc4c3)s1)CC2 [Example 23]", 9.00),
    ("CC(C)(C)OC(=O)Nc1ccc(OCCCc2sc(N3CCc4cccc(C(=O)Nc5nc6ccccc6s5)c4C3)nc2C(=O)O)cc1 [Example 4]", 9.10),
    ("NCc1ccc(OCCCc2sc(N3CCc4cccc(C(=O)Nc5nc6ccccc6s5)c4C3)nc2C(=O)O)cc1 [Compound 141]", 5.42),
    ("O=C(Nc1nc2ccccc2s1)c1cccc2c1CN(c1nc(C(=O)O)c(CCCOc3ccc4c5c3CCCN5CCC4)s1)CC2 [Example 27]", 8.15),
    ("O=C(Nc1nc2ccccc2s1)c1cccc2c1CN(c1nc(C(=O)O)c(CN3CCC(c4ccccc4)CC3)s1)CC2 [Example 63]", 6.24),
    ("O=C(Nc1nc2ccccc2s1)c1cccc2c1CN(c1nc(C(=O)O)c(CCCn3ccnc3)s1)CC2 [Example 16]", 8.00),
    ("CN1CCN(C(=O)c2ccc(OCCCc3ccc(N4CCc5cccc(C(=O)Nc6nc7ccccc7s6)c5C4)nc3C(=O)O)cc2)CC1 [Example 98]", 6.85),
]
